Molecular target: CDK2/Cyclin E1(14-475) (Homo sapiens)
Experiment: Caliper LabChip EZ Reader mobility shift assay, inhibition of CDK2/Cyclin E1 activity
Format: biochemical
Conditions: class symbols A-D
Each entry below lists one item and its recorded IC50 value.

stdin: Would you kindly share the measured IC50 for CNC(=O)[C@H](CCCc1ccccn1)NC(=O)C1CN(C(=O)Cc2c[nH]c3cc(Cl)ccc23)CC2CN(C(=O)c3ccc(OC(C)C)c(OC)c3)CC21 (stereo partly drawn) ?
stdout: 0.5 to 5 µM

stdin: Would you kindly share the measured IC50 for CNC(=O)[C@H](CCCc1ccccc1)NC(=O)C1CN(C(=O)Cc2c[nH]c3cc(Cl)ccc23)CC2CN(C(=O)c3cnc(-c4ccccc4)s3)CC21 (stereo partly drawn) ?
stdout: > 10 µM

stdin: Would you kindly share the measured IC50 for CNC(=O)[C@H](CCCc1ccccc1)NC(=O)C1CN(C(=O)Cc2cn(C)c3cc(Cl)ccc23)CC2CN(C(=O)c3ccc(OC(C)C)c(OC)c3)CC21 (stereo partly drawn) ?
stdout: 0.5 to 5 µM

stdin: Would you kindly share the measured IC50 for CNC(=O)[C@H](CCCc1ccccc1)NC(=O)C1CN(C(=O)Cc2c[nH]c3cc(Cl)ccc23)CC2CN(C(=O)c3cc4cc(C)ccc4[nH]3)CC21 (stereo partly drawn) ?
stdout: > 10 µM

stdin: Would you kindly share the measured IC50 for COc1cc(C(=O)N2CC3CN(C(=O)Cc4c[nH]c5cc(Cl)ccc45)CC(C(=O)N[C@@H](C)C(=O)N(C)CCCc4ccccc4)C3C2)ccc1OC(C)C (stereo partly drawn) ?
stdout: 0.5 to 5 µM

stdin: Would you kindly share the measured IC50 for CNC(=O)[C@H](CCCc1ccccc1)NC(=O)C1CN(C(=O)Cc2c[nH]c3cc(Cl)ccc23)CC2CN(C(=O)c3cnc(C4CC4)nc3)CC21 (stereo partly drawn) ?
stdout: > 10 µM

----------
Molecular target: CDK2/Cyclin E1(14-475) (Homo sapiens)
Assay: Caliper LabChip EZ Reader mobility shift assay, inhibition of CDK2/Cyclin E1 activity
Assay type: biochemical
Settings: class symbols A-D
pIC50: −log10 of the molar value.
ENDPOINT: pIC50

// worked examples, pIC50 included
# MOLECULE, pIC50
rows = [
    ("CNC(=O)[C@@H](NC(=O)C1CN(C(=O)Cc2c[nH]c3cc(Cl)ccc23)CC2CN(C(=O)c3cc(-c4ccccc4)n[nH]3)CC21)[C@@H](C)OCc1ccccc1 (some centres unmarked)", "< 5.00"),
    ("CNC(=O)[C@H](CCCc1ccccc1)NC(=O)C1CN(C(=O)Cc2c[nH]c3cc(Cl)ccc23)CC2CN(C(=O)c3ccc4c(c3)c(OC)nn4C(C)C)CC21 (some centres unmarked)", "5.30 to 6.30"),
    ("CNC(=O)[C@H](CCCc1ccccc1)NC(=O)C1CN(C(=O)Cc2c[nH]c3cc(C#N)ccc23)CC2CN(C(=O)c3ccc(OC(C)C)c(OC)c3)CC21 (some centres unmarked)", "5.30 to 6.30"),
    ("COc1cc(C(=O)N2CC3CN(C(=O)Cc4c[nH]c5cc(Cl)ccc45)CC(C(=O)N[C@@H](CCCc4cccc(O)c4)C(=O)NCCCCCN)C3C2)ccc1OC(C)C (single isomer, unassigned) [I-258]", "< 5.00"),
    ("COc1cc(C(=O)N2CC3CN(C(=O)Cc4c[nH]c5cc(Cl)ccc45)CC(C(=O)NCc4ccc(C)nn4)C3C2)ccc1OC(C)C (single isomer, unassigned) [I-261]", "< 5.00"),
    ("CNC(=O)[C@H](CCCc1ccccc1)NC(=O)C1CN(C(=O)Cc2c[nH]c3ncccc23)CC2CN(C(=O)c3ccc(OC(C)C)c(OC)c3)CC21 (some centres unmarked)", "< 5.00"),
]

stdin: Would you kindly share the measured pIC50 for CNC(=O)[C@H](CCCc1ccccc1)NC(=O)C1CN(C(=O)Cc2c[nH]c3cc(Cl)ccc23)CC2CN(C(=O)c3ccc(O)cc3)CC21 (some centres unmarked) ?
stdout: < 5.00

stdin: Would you kindly share the measured pIC50 for CNC(=O)[C@H](CCCc1ccccc1)NC(=O)C1CN(C(=O)Cc2c[nH]c3cc(Cl)ccc23)CC2CN(C(=O)c3ccc(OC)nn3)CC21 (some centres unmarked) ?
stdout: < 5.00

stdin: Would you kindly share the measured pIC50 for CNC(=O)[C@H](CCCc1ccccc1)NC(=O)C1CN(C(=O)Cc2c[nH]c3cc(Cl)ccc23)CC2CN(C(=O)c3cncc(C)n3)CC21 (some centres unmarked) ?
stdout: < 5.00

stdin: Would you kindly share the measured pIC50 for CNC(=O)[C@H](Cc1c[nH]c2ccccc12)NC(=O)C1CN(C(=O)Cc2c[nH]c3cc(Cl)ccc23)CC2CN(C(=O)c3ccc(OC(C)C)c(OC)c3)CC21 (single isomer, unassigned) [I-111] ?
stdout: ≥ 6.30

stdin: Would you kindly share the measured pIC50 for CNC(=O)[C@H](CCCC1CCCCCC1)NC(=O)C1CN(C(=O)Cc2c[nH]c3cc(Cl)ccc23)CC2CN(C(=O)c3ccc(OC(C)C)c(OC)c3)CC21 (some centres unmarked) ?
stdout: 5.30 to 6.30

----------
Molecular target: CDK2/Cyclin E1(14-475) (Homo sapiens, UniProt P24941)
Assay: HotSpot kinase inhibition assay (radiometric, Reaction Biology Corporation)
Assay type: biochemical
Conditions: 10 μM ATP, class symbols A-D
ENDPOINT: IC50

// worked examples, IC50 included
# MOLECULE, IC50
rows = [
    ("CNC(=O)[C@H](CCCc1ccccc1)NC(=O)C1CN(C(=O)Cc2c[nH]c3cc(Cl)ccc23)CC2CN(C(=O)c3ccc4c(c3)OCCO4)CC21 (stereo partly drawn) [I-77]", "> 100 µM"),
    ("CNC(=O)[C@H](CCCc1ccccc1)NC(=O)C1CN(C(=O)Cc2c[nH]c3cc(Cl)ccc23)CC2CN(C(=O)c3ccc4nccnc4c3)CC21 (stereo partly drawn) [I-17]", "> 100 µM"),
    ("CNC(=O)[C@H](CCCc1ccccc1)NC(=O)C1CN(C(=O)Cc2c[nH]c3cc(Cl)ccc23)CC2CN(C(=O)c3cc(-c4ccccc4)[nH]n3)CC21 (stereo partly drawn) [I-19]", "≤ 1 µM"),
    ("CNC(=O)[C@H](C)NC(=O)C1CN(C(=O)Cc2c[nH]c3cc(Cl)ccc23)CC2CN(C(=O)c3ccc(OC(C)C)c(OC)c3)CC21 (stereo partly drawn) [I-125]", "10 to 100 µM"),
    ("CNC(=O)[C@H](CCCc1ccccc1)NC(=O)C1CN(C(=O)Cc2c[nH]c3cc(Cl)ccc23)CC2CN(C(=O)c3cc(C4CC4)on3)CC21 (stereo partly drawn) [I-81]", "10 to 100 µM"),
]

Shift focus to the following entry.
stdin: Would you kindly share the measured IC50 for CNC(=O)[C@H](CCCc1ccccc1)NC(=O)C1CN(C(=O)Cc2c[nH]c3cc(Cl)ccc23)CC2CN(C(=O)c3ccc(O)c(OC)c3)CC21 (stereo partly drawn) [I-32] ?
stdout: > 100 µM

----------
Each entry below lists one item and its recorded pIC50 value.
Molecular target: CDK2/Cyclin E1(14-475) (Homo sapiens, UniProt P24941)
Assay: Caliper LabChip EZ Reader mobility shift assay, inhibition of CDK2/Cyclin E1 activity
Format: biochemical
Settings: class symbols A-D
pIC50: −log10 of the molar value.

// worked examples, pIC50 included
# COMPOUND, TGT, pIC50
rows = [
    ("CNC(=O)[C@H](CCCc1ccncc1)NC(=O)C1CN(C(=O)Cc2c[nH]c3cc(Cl)ccc23)CC2CN(C(=O)c3ccc(OC(C)C)c(OC)c3)CC21 (some centres unmarked) [I-138]", "CDK2/Cyclin E1(14-475) (Homo sapiens, UniProt P24941)", "< 5.00"),
    ("CNC(=O)[C@H](CCCc1ccccc1)NC(=O)C1CN(C(=O)Cc2cc[nH]n2)CC2CN(C(=O)c3ccc(OC(C)C)c(OC)c3)CC21 (some centres unmarked) [I-198]", "CDK2/Cyclin E1(14-475) (Homo sapiens, UniProt P24941)", "< 5.00"),
    ("CNC(=O)[C@H](CCCc1ccccc1)NC(=O)C1CN(C(=O)CCc2ccccn2)CC2CN(C(=O)c3ccc(OC(C)C)c(OC)c3)CC21 (some centres unmarked) [I-164]", "CDK2/Cyclin E1(14-475) (Homo sapiens, UniProt P24941)", "< 5.00"),
]

Shift focus to the following entry.
stdin: Would you kindly share the measured pIC50 for CNC(=O)[C@H](CCCc1ccccc1)NC(=O)C1CN(C(=O)C2CCOCC2)CC2CN(C(=O)c3ccc(OC(C)C)c(OC)c3)CC21 (some centres unmarked) [I-207] ?
stdout: < 5.00

----------
Target: CDK2/Cyclin E1(14-475) (Homo sapiens, UniProt P24941)
Assay: HotSpot kinase inhibition assay (radiometric, Reaction Biology Corporation)
Assay type: biochemical
Details: 10 μM ATP, class symbols A-D
pIC50: −log10 of the molar value.
Each entry below lists one item and its recorded pIC50 value.

// worked examples, pIC50 included
# COMPOUND, pIC50
records = [
    ("CNC(=O)[C@H](CCCc1ccccc1)NC(=O)C1CN(C(=O)Cc2c[nH]c3cc(Cl)ccc23)CC2CN(C(=O)c3cc(-c4ccccc4)on3)CC21 (stereo partly drawn)", "< 4.00"),
    ("CNC(=O)[C@H](Cc1ccc(O)cc1)NC(=O)C1CN(C(=O)Cc2c[nH]c3cc(Cl)ccc23)CC2CN(C(=O)c3ccc(OC(C)C)c(OC)c3)CC21 (stereo partly drawn)", "4.00 to 5.00"),
    ("CNC(=O)[C@H](CCCc1ccccc1)NC(=O)C1CN(C(=O)Cc2c[nH]c3c(Cl)cccc23)CC2CN(C(=O)c3ccc(OC(C)C)c(OC)c3)CC21 (stereo partly drawn)", "5.00 to 6.00"),
    ("CNC(=O)[C@H](CCCc1ccccc1)NC(=O)C1CN(C(=O)Cc2c[nH]c3cc(Cl)ccc23)CC2CN(C(=O)c3cccc(Oc4ccccc4)c3)CC21 (stereo partly drawn)", "< 4.00"),
]

stdin: Request body: readout pIC50, system CDK2/Cyclin E1(14-475) (Homo sapiens, UniProt P24941), query CNC(=O)[C@H](CCCc1ccccc1)NC(=O)C1CN(C(=O)Cc2c[nH]c3cc(Cl)ccc23)CC2CN(C(=O)c3ccc4[nH]c(C)cc4c3)CC21 (stereo partly drawn) . Return the value.
stdout: 4.00 to 5.00

stdin: Request body: readout pIC50, system CDK2/Cyclin E1(14-475) (Homo sapiens, UniProt P24941), query CCOc1cccc(C(=O)N2CC3CN(C(=O)Cc4c[nH]c5cc(Cl)ccc45)CC(C(=O)N[C@@H](CCCc4ccccc4)C(=O)NC)C3C2)c1 (stereo partly drawn) . Return the value.
stdout: 4.00 to 5.00
